Molecular target: Cyclin-dependent kinase 4/cyclin D1 (Homo sapiens) (UniProt P11802+P24385)
Test: Inhibition of human CDK4/cycD1 expressed in Sf9 cells at 100 uM; values are per cent of control
List of residual activity values.
Measure: residual activity

O=C1NC(=O)c2c1c1ccccc1c1[nH]c3ccccc3c21 : 35%
COc1cc(C2=C(c3cc4ccccc4[nH]3)C(=O)NC2=O)cc(OC)c1OC : 78%
COc1cc(C2=C(c3cc[nH]c3)C(=O)NC2=O)cc(OC)c1OC : 64%

---

Biological target: Cyclin-dependent kinase 1/cyclin B (Homo sapiens) (UniProt P06493+P14635+Q8WWL7+O95067)
Assay: Inhibition of human CDK1/cycB expressed in Sf9 cells at 10 uM; values are per cent of control
Measure: residual activity (%)

COc1cc(C2=C(c3ccccc3)C(=O)NC2=O)cc(OC)c1OC : 102
COc1cc(C2=C(c3c[nH]c4ccccc34)C(=O)NC2=O)cc(OC)c1OC [MALEIMIDE] : 86
COc1cc2c3c(c4c5ccccc5[nH]c4c2c(OC)c1OC)C(=O)NC3=O : 80
O=C1NC(=O)C(c2c[nH]c3ccccc23)=C1c1cccc2ccccc12 : 30
COc1ccc(C2=C(c3cc(OC)c(OC)c(OC)c3)C(=O)NC2=O)cc1O : 103
O=C1NC(=O)C(c2c[nH]c3ccccc23)=C1c1ccc(Cl)cc1 : 102
COc1ccc(C2=C(c3ccccc3)C(=O)NC2=O)cc1OC : 99
COc1cc(C2=C(c3cn(C)c4ccccc34)C(=O)NC2=O)cc(OC)c1OC : 77
COc1ccc(C2=C(c3ccc(OC)cc3)C(=O)NC2=O)cc1 : 108
COc1cc(C2=C(c3c(-c4ccccc4)[nH]c4ccccc34)C(=O)NC2=O)cc(OC)c1OC : 96
COc1ccc(C2=C(c3cc(OC)c(OC)c(OC)c3)C(=O)NC2=O)cc1 : 100
COc1ccc(C2=C(c3c[nH]c4ccccc34)C(=O)NC2=O)cc1 : 101
COc1cc(C2=C(c3cc4ccccc4[nH]3)C(=O)NC2=O)cc(OC)c1OC : 97
COc1ccc(C2=C(c3c[nH]c4ccccc34)C(=O)NC2=O)cc1OC : 96
COc1ccc(C2=C(c3ccccc3)C(=O)NC2=O)cc1 : 87
O=C1NC(=O)c2c1c1ccccc1c1[nH]c3ccccc3c21 : 87
COc1ccc2[nH]c3c4c(OC)c(OC)c(OC)cc4c4c(c3c2c1)C(=O)NC4=O : 96
COc1cc(C2=C(c3c(C)[nH]c4ccccc34)C(=O)NC2=O)cc(OC)c1OC : 48
O=C1NC(=O)C(c2ccccc2)=C1c1ccccc1 : 100
COc1cc(C2=C(c3cc[nH]c3)C(=O)NC2=O)cc(OC)c1OC : 99
COc1cc2c3c(c4c5ccccc5n(C)c4c2c(OC)c1OC)C(=O)NC3=O : 43
O=C1NC(=O)C(c2c[nH]c3ccccc23)=C1c1ccccc1 : 92
COc1ccc2[nH]cc(C3=C(c4cc(OC)c(OC)c(OC)c4)C(=O)NC3=O)c2c1 : 105

---

Biological target: Protein kinase C epsilon type (Mus musculus) (UniProt P16054)
Sequence (whole entry): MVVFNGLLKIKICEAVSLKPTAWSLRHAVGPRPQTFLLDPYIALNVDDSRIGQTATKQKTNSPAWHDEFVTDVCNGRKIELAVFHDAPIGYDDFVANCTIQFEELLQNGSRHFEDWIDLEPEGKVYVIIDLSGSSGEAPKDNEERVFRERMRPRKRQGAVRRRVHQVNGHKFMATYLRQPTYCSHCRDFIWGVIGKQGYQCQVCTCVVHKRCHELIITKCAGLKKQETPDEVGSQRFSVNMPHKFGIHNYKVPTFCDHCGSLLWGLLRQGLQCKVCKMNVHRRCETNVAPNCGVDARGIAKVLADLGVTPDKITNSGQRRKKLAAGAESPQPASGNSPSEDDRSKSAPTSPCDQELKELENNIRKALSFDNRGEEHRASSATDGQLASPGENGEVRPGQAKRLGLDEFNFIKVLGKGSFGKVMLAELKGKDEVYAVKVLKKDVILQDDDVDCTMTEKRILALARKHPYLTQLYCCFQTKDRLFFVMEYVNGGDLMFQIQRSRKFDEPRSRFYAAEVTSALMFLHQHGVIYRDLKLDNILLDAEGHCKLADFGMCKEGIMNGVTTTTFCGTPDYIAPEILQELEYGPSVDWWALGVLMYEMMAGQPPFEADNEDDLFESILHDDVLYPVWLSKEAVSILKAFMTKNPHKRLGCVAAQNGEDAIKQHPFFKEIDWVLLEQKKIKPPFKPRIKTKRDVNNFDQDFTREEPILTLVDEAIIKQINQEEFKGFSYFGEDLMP
Assay: Inhibition of mouse PKC epsilon expressed in Sf9 cells at 100 uM
Conditions: values are per cent of control
In this section, each of the molecules is paired with its reported residual activity.
Measure: residual activity (%)

COc1cc(C2=C(c3cc[nH]c3)C(=O)NC2=O)cc(OC)c1OC : 61
COc1cc(C2=C(c3c(-c4ccccc4)[nH]c4ccccc34)C(=O)NC2=O)cc(OC)c1OC : 108
O=C1NC(=O)C(c2c[nH]c3ccccc23)=C1c1cccc2ccccc12 : 8
COc1ccc2[nH]cc(C3=C(c4cc(OC)c(OC)c(OC)c4)C(=O)NC3=O)c2c1 : 90
COc1cc(C2=C(c3cn(C)c4ccccc34)C(=O)NC2=O)cc(OC)c1OC : 22
COc1ccc(C2=C(c3ccc(OC)cc3)C(=O)NC2=O)cc1 : 82
COc1cc(C2=C(c3c(C)[nH]c4ccccc34)C(=O)NC2=O)cc(OC)c1OC : 91
COc1ccc(C2=C(c3c[nH]c4ccccc34)C(=O)NC2=O)cc1 : 79
O=C1NC(=O)C(c2c[nH]c3ccccc23)=C1c1ccc(Cl)cc1 : 97
COc1cc(C2=C(c3ccccc3)C(=O)NC2=O)cc(OC)c1OC : 91

---

Biological target: CDK6/cyclin D1 (Homo sapiens) (UniProt P24385+Q00534)
Assay: Inhibition of human CDK6/cycD1 expressed in Sf9 cells at 100 uM; values are per cent of control
Note to self: use T only for residual activity readings below 70%; a reading exactly at 70% still gets F.

COc1cc(C2=C(c3cc4ccccc4[nH]3)C(=O)NC2=O)cc(OC)c1OC : F
COc1cc(C2=C(c3ccccc3)C(=O)NC2=O)cc(OC)c1OC : F
O=C1NC(=O)C(c2c[nH]c3ccccc23)=C1c1ccccc1 : T
COc1ccc(C2=C(c3ccccc3)C(=O)NC2=O)cc1OC : F
O=C1NC(=O)C(c2c[nH]c3ccccc23)=C1c1cccc2ccccc12 : T
COc1cc2c3c(c4c5ccccc5[nH]c4c2c(OC)c1OC)C(=O)NC3=O : T

---

Target: Protein kinase C epsilon type (Mus musculus) (UniProt P16054)
Sequence (whole entry): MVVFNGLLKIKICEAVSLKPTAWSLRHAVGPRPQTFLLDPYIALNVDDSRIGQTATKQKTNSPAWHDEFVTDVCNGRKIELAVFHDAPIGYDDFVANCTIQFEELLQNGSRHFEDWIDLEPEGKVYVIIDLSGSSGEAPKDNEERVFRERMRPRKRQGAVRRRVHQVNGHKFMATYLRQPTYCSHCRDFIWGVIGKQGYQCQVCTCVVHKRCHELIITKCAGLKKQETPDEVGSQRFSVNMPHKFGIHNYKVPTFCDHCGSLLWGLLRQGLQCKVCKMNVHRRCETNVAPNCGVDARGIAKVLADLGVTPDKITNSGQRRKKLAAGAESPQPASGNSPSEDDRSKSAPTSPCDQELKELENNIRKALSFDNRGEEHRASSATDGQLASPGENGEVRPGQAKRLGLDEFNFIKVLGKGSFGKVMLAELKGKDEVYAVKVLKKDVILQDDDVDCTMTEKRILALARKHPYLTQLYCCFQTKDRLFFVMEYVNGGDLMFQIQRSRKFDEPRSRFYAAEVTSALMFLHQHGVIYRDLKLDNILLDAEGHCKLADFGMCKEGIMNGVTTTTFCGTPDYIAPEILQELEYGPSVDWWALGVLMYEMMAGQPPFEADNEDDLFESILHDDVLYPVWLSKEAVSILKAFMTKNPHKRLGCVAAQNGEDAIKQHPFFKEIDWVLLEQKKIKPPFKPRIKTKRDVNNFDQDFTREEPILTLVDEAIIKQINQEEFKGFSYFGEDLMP
Assay: Inhibition of mouse PKC epsilon expressed in Sf9 cells at 10 uM; values are per cent of control
Let's look at some molecules and their measured residual activity.
Measure: residual activity (%)

COc1cc(C2=C(c3c(C)[nH]c4ccccc34)C(=O)NC2=O)cc(OC)c1OC : 39
O=C1NC(=O)c2c1c1ccccc1c1[nH]c3ccccc3c21 : 107
COc1ccc(C2=C(c3cc(OC)c(OC)c(OC)c3)C(=O)NC2=O)cc1O : 73
COc1ccc(C2=C(c3c[nH]c4ccccc34)C(=O)NC2=O)cc1 : 83
O=C1NC(=O)C(c2c[nH]c3ccccc23)=C1c1ccc(Cl)cc1 : 98
COc1cc(C2=C(c3ccccc3)C(=O)NC2=O)cc(OC)c1OC : 94
COc1ccc2[nH]c3c4c(OC)c(OC)c(OC)cc4c4c(c3c2c1)C(=O)NC4=O : 111
COc1ccc(C2=C(c3c[nH]c4ccccc34)C(=O)NC2=O)cc1OC : 77
COc1cc(C2=C(c3c(-c4ccccc4)[nH]c4ccccc34)C(=O)NC2=O)cc(OC)c1OC : 100
O=C1NC(=O)C(c2c[nH]c3ccccc23)=C1c1cccc2ccccc12 : 21
COc1cc(C2=C(c3cc[nH]c3)C(=O)NC2=O)cc(OC)c1OC : 62
O=C1NC(=O)C(c2c[nH]c3ccccc23)=C1c1ccccc1 : 94
COc1cc(C2=C(c3cc4ccccc4[nH]3)C(=O)NC2=O)cc(OC)c1OC : 83
